Values compiled from patent US4590209A.

Assay: Acute toxicity (LD50), Weil method
Conditions: mouse, in vivo, ip; mice, intraperitoneal; read-out: i.p. LD50
Structures can show the parent of a compound that is named as a salt.
readout-kind: LD50

COCCCC(=O)OC(CC(=O)O)C[N+](C)(C)C (centres unmarked) [R = 4-methoxybutyryl, 4-methoxybutyryl carnitine] ... 1850 mg/kg

Would you kindly share the measured LD50 for CCOCCC(=O)OC(CC(=O)O)C[N+](C)(C)C (centres unmarked) [R = 3-ethoxypropionyl, hydrochloride] ? 1300 mg/kg
